The values you see were collected from BindingDB's records for doi:10.1016/j.bmcl.2006.03.080.

- protocol.description: Antiviral activity against HIV1 Y188L mutant in MT4 cells by MTT assay
I'd appreciate it if you could supply EC50 values for the items below.

{"smiles.repr": "Cc1c(Cc2c(Cl)cccc2Cl)nc(Sc2ccccc2)[nH]c1=O", "EC50": "> 66.3 µM"}
{"smiles.repr": "COc1ccc(Sc2nc(Cc3c(Cl)cccc3Cl)c(C)c(=O)[nH]2)cn1", "EC50": "> 61.3 µM"}
{"smiles.repr": "COc1ccc(Sc2nc(Cc3c(Cl)cccc3Cl)c(C)c(=O)[nH]2)cc1", "EC50": "> 61.4 µM"}
{"smiles.repr": "Cc1c(Cc2c(Cl)cccc2Cl)nc(Sc2ccc(F)cc2F)[nH]c1=O", "EC50": "> 60.5 µM"}

Items follow; give EC50 for each.
1. Cc1c(Cc2c(F)cccc2F)nc(Sc2ccc(F)cc2F)[nH]c1=O
2. Cc1c(Cc2c(F)cccc2F)nc(Sc2ccccc2)[nH]c1=O
3. Cc1c(Cc2c(F)cccc2F)nc(Sc2ccc(Cl)cc2)[nH]c1=O
4. COc1ccc(Sc2nc(Cc3c(F)cccc3F)c(C)c(=O)[nH]2)cc1

1: > 65.8 µM; 2: > 72.7 µM; 3: > 66.1 µM; 4: > 57.5 µM

Items follow; give EC50 for each.
1. Cc1c(Cc2c(Cl)cccc2Cl)nc(Sc2ccc(C#N)cc2)[nH]c1=O
2. Cc1cn([C@H]2C[C@H](N=[N+]=[N-])[C@@H](CO)O2)c(=O)[nH]c1=O

1. > 27.6 µM
2. 0.003 µM
